pIC50 overview
target: UniProt P41279; test: High Throughput Cot Biochemical Assay; details: IC50 HTRF, Cot HTRF (TR-FRET) biochemical assay
Sequence (P41279 30-397): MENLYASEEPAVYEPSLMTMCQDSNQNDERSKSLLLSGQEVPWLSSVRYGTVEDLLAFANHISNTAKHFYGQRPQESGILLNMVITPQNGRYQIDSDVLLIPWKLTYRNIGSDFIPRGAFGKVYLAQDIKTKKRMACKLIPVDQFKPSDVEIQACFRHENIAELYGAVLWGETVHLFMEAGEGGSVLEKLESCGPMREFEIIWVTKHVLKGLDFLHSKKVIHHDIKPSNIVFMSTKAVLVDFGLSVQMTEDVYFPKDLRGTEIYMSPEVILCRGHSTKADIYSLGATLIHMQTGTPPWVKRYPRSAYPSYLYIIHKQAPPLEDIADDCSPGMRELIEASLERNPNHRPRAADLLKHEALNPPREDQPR
To interpret pIC50, take it as minus log10 of a concentration measured in moles per litre.

Some compounds with recorded pIC50:
[
  {
    "Query Smiles": "CC(C)(C)n1cc([C@@H](Nc2cc(Cl)c3ncc(C#N)c(Nc4ccc(F)c(Cl)c4)c3c2)c2cocn2)nn1",
    "System": "UniProt P41279",
    "pIC50": 7.40
  },
  {
    "Query Smiles": "CC(C)(C)CNc1c(C#N)cnc2c(Cl)cc(N[C@H](c3cn(C4(C(F)F)CC4)nn3)c3cccn4nccc34)cc12",
    "System": "UniProt P41279",
    "pIC50": 8.30
  },
  {
    "Query Smiles": "Cn1ccc2c([C@H](Nc3cc(Cl)c4ncc(C#N)c(NCC(C)(C)C)c4c3)c3cn(C4(C)COC4)nn3)cccc2c1=O",
    "System": "UniProt P41279",
    "pIC50": 8.70
  }
]

Proceeding to the next compound to report its pIC50.
What measured pIC50 goes with `Cc1ncccc1[C@H](Nc1cc(Cl)c2ncc(C#N)c(Nc3cnc(F)c(F)c3)c2c1)c1cn(C2CC2)nn1` ?
8.40
